Target: T1, soluble human insulin receptor-immunoglobulin heavy chain chimera (sIR-Fc) (human, UniProt P06213 28-956, limits assumed, Eu3+ (LANCE) label in the TR-FRET assays)
T1 construct: extracellular domain; Construct of Bass et al., 1996; also called HIR-immunoglobulin heavy chain chimera; not shown: immunoglobulin heavy chain constant domains
Assay: TR-FRET on Eu-sIR-Fc, competitor b-RP9
Description: Time-resolved fluorescence resonance energy transfer assays (TR-FRET) were used for peptide competition studies. The TR-FRET assays were performed in a 384-well white microplate with a final volume of 30 μl.
measurement_type: IC50

Fill blank: measured IC50 of the binder FHENFYDWFVRQVSKK (also called D117) [H2C] is ____.
1630 nM
